Molecular target: TYK2 (Homo sapiens)
Assay: TYK2 degradation MSD assay in human PBMC cells
Format: cell-based
Parameters: endogenous in cells; host or cells: human PBMC
Conditions: 4 to 24 hours incubation, read-out: TYK2 MSD DC50 rating in human PBMC
MEASUREMENT LABEL: DC50

MOLECULE	TARGET	OBSERVED MEASUREMENT
CNC(=O)c1cnc(NC(=O)NCCCCCCCCc2ccc3c(c2)n(C)c(=O)n3C2CCC(=O)NC2=O)cc1Nc1cccc(-c2ncc(F)cn2)c1OC (centres unmarked)	TYK2 (Homo sapiens)	1 to 10 nM
CNc1cc(N2CCc3c(N4CCN(C5CCN(c6ccc7c(c6)n(C)c(=O)n7C6CCC(=O)NC6=O)CC5)CC4)cccc32)nn2c(C(=O)N[C@@H]3C[C@@H]3F)cnc12 (some centres unmarked)	TYK2 (Homo sapiens)	> 100 nM
CNc1cc(Nc2cccc(CN3CCC4(CC3)CCN(c3ccc5c(c3)[nH]c(=O)n5C3CCC(=O)NC3=O)C4)c2)nn2c(C(=O)NC3CC3)cnc12 (centres unmarked)	TYK2 (Homo sapiens)	> 100 nM
CNc1cc(-c2cccc(C(=O)NCCCCCCCCc3cccc4c3n(C)c(=O)n4C3CCC(=O)NC3=O)c2)nn2c(C(=O)N[C@@H]3C[C@@H]3F)cnc12 (some centres unmarked)	TYK2 (Homo sapiens)	> 100 nM

Turning now to a further record.
DC50 reading for CNc1cc(Nc2cccn(-c3ccc(C(=O)N[C@H]4CC[C@H](CN5CCC6(CC5)CN(Cc5cccc7c5n(C)c(=O)n7C5CCC(=O)NC5=O)C6)CC4)cn3)c2=O)nn2c(C(=O)N[C@@H]3C[C@@H]3F)cnc12 (some centres unmarked) : > 100 nM

###

Target: TYK2 (Homo sapiens, UniProt P29597)
Sequence (P29597 whole entry): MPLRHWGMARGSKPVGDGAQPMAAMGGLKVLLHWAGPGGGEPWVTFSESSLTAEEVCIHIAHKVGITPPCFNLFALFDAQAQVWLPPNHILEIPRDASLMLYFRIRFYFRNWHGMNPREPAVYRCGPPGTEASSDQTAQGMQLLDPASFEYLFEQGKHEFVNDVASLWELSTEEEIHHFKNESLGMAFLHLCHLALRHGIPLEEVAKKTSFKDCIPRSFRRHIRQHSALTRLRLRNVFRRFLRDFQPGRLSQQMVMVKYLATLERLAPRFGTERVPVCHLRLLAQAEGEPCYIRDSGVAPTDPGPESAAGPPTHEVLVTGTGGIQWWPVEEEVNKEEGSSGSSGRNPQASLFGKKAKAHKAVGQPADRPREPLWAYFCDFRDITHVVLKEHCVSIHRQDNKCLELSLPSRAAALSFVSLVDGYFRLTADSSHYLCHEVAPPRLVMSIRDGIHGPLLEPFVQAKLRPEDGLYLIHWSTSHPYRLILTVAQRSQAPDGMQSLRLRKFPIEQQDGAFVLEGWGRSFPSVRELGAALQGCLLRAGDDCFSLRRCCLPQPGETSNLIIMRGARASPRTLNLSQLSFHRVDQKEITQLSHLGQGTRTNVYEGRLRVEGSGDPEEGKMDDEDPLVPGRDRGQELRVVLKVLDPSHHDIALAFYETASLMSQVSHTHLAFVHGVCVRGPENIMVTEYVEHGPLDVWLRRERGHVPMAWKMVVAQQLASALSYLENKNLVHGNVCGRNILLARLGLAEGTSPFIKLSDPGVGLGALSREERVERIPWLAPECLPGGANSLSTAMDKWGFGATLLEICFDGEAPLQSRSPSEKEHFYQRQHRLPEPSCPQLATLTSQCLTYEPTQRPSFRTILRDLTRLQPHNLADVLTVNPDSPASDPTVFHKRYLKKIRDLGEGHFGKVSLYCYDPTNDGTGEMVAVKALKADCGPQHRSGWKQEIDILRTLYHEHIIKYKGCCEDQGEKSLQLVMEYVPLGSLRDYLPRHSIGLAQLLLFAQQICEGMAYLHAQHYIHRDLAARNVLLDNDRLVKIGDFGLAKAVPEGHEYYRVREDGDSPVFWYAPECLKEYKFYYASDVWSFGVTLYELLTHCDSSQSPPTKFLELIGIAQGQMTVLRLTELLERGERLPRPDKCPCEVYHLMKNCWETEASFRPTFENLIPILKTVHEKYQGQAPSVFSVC
Experiment: TYK2 degradation MSD assay in human PBMC cells
Assay type: cell-based
Design: endogenous in cells; host or cells: human PBMC
Conditions: 4 to 24 hours incubation, read-out: TYK2 MSD DC50 rating in human PBMC
Reported DC50 values for a set of compounds

// solved cases for DC50 follow
COMPOUND	MEASUREMENT LABEL	OBSERVED MEASUREMENT
CNc1cc(Nc2cccn(-c3ccc(C(=O)N(C)C4CCN(c5ccc(-c6ccc7c(c6)n(C)c(=O)n7C6CCC(=O)NC6=O)cc5)C4)cn3)c2=O)nn2c(C(=O)N[C@@H]3C[C@@H]3F)cnc12 (some centres unmarked)	DC50	> 100 nM
CNc1cc(Nc2cccn(C3CCN(C(=O)NCCCCCCCCCCc4ccc5c(c4)n(C)c(=O)n5C4CCC(=O)NC4=O)CC3)c2=O)nn2c(C(=O)N[C@@H]3C[C@@H]3F)cnc12 (some centres unmarked)	DC50	> 100 nM
Cn1c(=O)n(C2CCC(=O)NC2=O)c2ccc(-c3ccc(N4CCN(Cc5ccc(-c6cccc(Oc7ccc8ncc(C(=O)NC9CC9)n8n7)c6)nc5)CC4)cc3)cc21 (centres unmarked)	DC50	> 100 nM
CNC(=O)c1cnc(Nc2ccc(CN3CCCC(c4cccc5c4n(C)c(=O)n5C4CCC(=O)NC4=O)C3)cn2)cc1Nc1cccc(-c2ncc(F)cn2)c1OC (centres unmarked)	DC50	> 100 nM

Turning now to a further record.
DC50 reading for CNc1cc(Nc2cccc(C(=O)NCCCCCCCCc3cccc4c3n(C)c(=O)n4C3CCC(=O)NC3=O)c2)nn2c(C(=O)N[C@@H]3C[C@@H]3F)cnc12 (some centres unmarked) : 1 to 10 nM
